FYI, the data here is from patent US20250179049A1.

assay: Kinetic solubility in biorelevant media; type: physicochemical; details: fed-state simulated intestinal fluid (FeSSIF), thermodynamic from solid; FeSSIF #2 pH 5.8, room temperature, t = 1 hour
Counter-ions that a name gives are not always drawn.

COMPOUND: CC(C)(OCc1cc(-c2cccc(OC3CCC3)c2)n(-c2ccccc2N2CCC2)n1)C(=O)O [tris salt Form B]
UNIT LABEL: µg/mL
solubility at 1 h: 99

====

test: Kinetic solubility in biorelevant media; assay type: physicochemical; conditions: fed-state simulated intestinal fluid (FeSSIF), pH 5.8, thermodynamic from solid; FeSSIF, before precipitation; read-out: Kinetic solubility, initially in solution
Where a name gives a salt, the structure may show the parent alone.

MOLECULE: CC(C)(OCc1cc(-c2cccc(OC3CCC3)c2)n(-c2ccccc2N2CCC2)n1)C(=O)O [tris salt Form B]
solubility kinetic: ≥ 3000 µg/mL

====

assay: Rat pharmacokinetics, oral gavage; assay type: in vivo, Sprague-Dawley rats; conditions: female, Sprague-Dawley, rat, plasma, po, 20 mg/kg, rat, Female, PO/20 mg/kg, Mean ± SD; read-out: Cmax

SMILES NOTATION: CC(C)(OCc1cc(-c2cccc(OC3CCC3)c2)n(-c2ccccc2N2CCC2)n1)C(=O)O
Cmax: 78.8 µg/mL

====

assay: Dog pharmacokinetics, oral gavage suspension; type: in vivo, beagle dogs; details: dog, plasma; male beagle dogs, oral suspension, 3 mg/kg, mean
Counter-ions that a name gives are not always drawn.
READOUT TYPE: half-life (h)

MOLECULE: CC(C)(OCc1cc(-c2cccc(OC3CCC3)c2)n(-c2ccccc2N2CCC2)n1)C(=O)O [Compound 1 tris salt]
UNIT LABEL: h
READOUT VALUE: 4.74

====

Molecular target: hERG channel (Homo sapiens)
Sequence (Q12809 whole entry): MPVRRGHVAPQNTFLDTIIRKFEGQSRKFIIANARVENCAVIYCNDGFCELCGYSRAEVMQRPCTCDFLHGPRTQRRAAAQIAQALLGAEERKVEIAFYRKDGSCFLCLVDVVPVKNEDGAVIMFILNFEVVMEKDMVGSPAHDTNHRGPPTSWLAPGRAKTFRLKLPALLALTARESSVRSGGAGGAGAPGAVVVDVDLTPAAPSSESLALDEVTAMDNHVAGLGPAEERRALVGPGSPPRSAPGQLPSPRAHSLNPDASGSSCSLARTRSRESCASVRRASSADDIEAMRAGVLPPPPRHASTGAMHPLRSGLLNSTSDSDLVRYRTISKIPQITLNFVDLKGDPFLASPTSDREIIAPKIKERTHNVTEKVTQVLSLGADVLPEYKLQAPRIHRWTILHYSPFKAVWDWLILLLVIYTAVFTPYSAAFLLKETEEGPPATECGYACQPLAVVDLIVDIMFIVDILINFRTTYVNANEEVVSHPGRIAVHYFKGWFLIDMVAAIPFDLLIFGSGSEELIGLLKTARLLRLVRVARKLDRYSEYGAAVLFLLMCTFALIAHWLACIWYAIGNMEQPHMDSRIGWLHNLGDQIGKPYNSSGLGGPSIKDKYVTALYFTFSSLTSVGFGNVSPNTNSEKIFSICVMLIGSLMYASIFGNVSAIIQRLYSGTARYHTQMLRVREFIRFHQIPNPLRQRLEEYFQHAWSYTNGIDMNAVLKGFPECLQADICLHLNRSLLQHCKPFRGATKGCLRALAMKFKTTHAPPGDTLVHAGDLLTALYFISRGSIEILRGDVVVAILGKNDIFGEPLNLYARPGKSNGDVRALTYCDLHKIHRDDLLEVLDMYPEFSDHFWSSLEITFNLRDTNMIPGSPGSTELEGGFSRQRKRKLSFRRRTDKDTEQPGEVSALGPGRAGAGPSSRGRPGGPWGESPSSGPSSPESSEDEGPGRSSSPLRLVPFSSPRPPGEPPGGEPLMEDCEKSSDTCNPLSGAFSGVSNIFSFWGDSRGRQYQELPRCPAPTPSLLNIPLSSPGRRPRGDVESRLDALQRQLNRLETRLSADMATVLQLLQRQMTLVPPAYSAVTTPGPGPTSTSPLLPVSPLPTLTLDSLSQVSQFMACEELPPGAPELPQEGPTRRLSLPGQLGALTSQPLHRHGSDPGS
Experiment: in vitro hERG assay
Details: determination precluded by potential cytotoxicity at >300 μM; read-out: half maximal inhibitory concentration (IC50) against the hERG channel
Experimental: The safety pharmacology of Compound 1 and its tris salt was evaluated in an in vitro human ether-à-go-go related gene (hERG) assay, a behavioral study in Sprague Dawley rats, and a respiratory and cardiovascular system assessment using electrocardiogram (ECG)-telemetered beagle dogs. […] Determination of the IC50 against the hERG channel was precluded due to potential cytotoxicity at doses >300 μM. […]
pIC50: −log10 of the molar value.

SMILES NOTATION: CC(C)(OCc1cc(-c2cccc(OC3CCC3)c2)n(-c2ccccc2N2CCC2)n1)C(=O)O
pIC50: < 3.52

====

experiment: Rat pharmacokinetics, oral gavage; format: in vivo, Sprague-Dawley rats; conditions: female, Sprague-Dawley, rat, plasma, po, 250 mg/kg, rat PO 250 mg/kg, female, mean; read-out: Cmax
Where a name gives a salt, the structure may show the parent alone.

COMPOUND: CC(C)(OCc1cc(-c2cccc(OC3CCC3)c2)n(-c2ccccc2N2CCC2)n1)C(=O)O [Compound 1 tris salt]
Cmax (µg/mL): 223

====

experiment: Rat pharmacokinetics, oral gavage; type: in vivo, Sprague-Dawley rats; details: female, Sprague-Dawley, rat, plasma, po, 200 mg/kg, rat, Female, PO/200 mg/kg, Mean ± SD; read-out: AUC0-24

SMILES NOTATION: CC(C)(OCc1cc(-c2cccc(OC3CCC3)c2)n(-c2ccccc2N2CCC2)n1)C(=O)O
AUC(0-t) / µg·h/mL: 2850

====

test: Rat pharmacokinetics, oral gavage; format: in vivo, Sprague-Dawley rats; settings: female, Sprague-Dawley, rat, plasma, po, 20 mg/kg, rat, Female, PO/20 mg/kg, Mean ± SD; read-out: AUC0-24

MOLECULE: CC(C)(OCc1cc(-c2cccc(OC3CCC3)c2)n(-c2ccccc2N2CCC2)n1)C(=O)O [Compound 1]
AUC(0-t), µg·h/mL: 885

====

Test: Dog pharmacokinetics, powder in capsule
Format: in vivo, beagle dogs
Conditions: male beagle dogs, powder in capsule, 3 mg/kg, mean
Description: Groups, Dosing, and Collection. The pharmacokinetics of the free acid and the tris salt of Compound 1 administered by oral capsules was assessed in dogs. Three male beagle dogs were administered a single dose of 3 mg/kg Compound 1 free acid on Day 1 of the study, and a single dose of 3 mg/kg Compound 1 tris salt on Day 8 of the study. Plasma was collected pre-dose, and at 0.5, 1, 2, 4, 8, 12 and 24 hours post-dose via puncture of peripheral veins. LC MS-MS Analysis. […]
Counter-ions that a name gives are not always drawn.

MOLECULE: CC(C)(OCc1cc(-c2cccc(OC3CCC3)c2)n(-c2ccccc2N2CCC2)n1)C(=O)O [Compound 1 tris salt]
MRTlast: 7.89 h

====

experiment: Rat pharmacokinetics, oral gavage; type: in vivo, Sprague-Dawley rats; details: Sprague-Dawley, plasma; rat PO 60 mg/kg, male, mean
READOUT TYPE: half-life (h)

COMPOUND: CC(C)(OCc1cc(-c2cccc(OC3CCC3)c2)n(-c2ccccc2N2CCC2)n1)C(=O)O [Compound 1]
READOUT TYPE: half-life
READOUT VALUE: 2.92

====

experiment: Rat pharmacokinetics, oral gavage; type: in vivo, Sprague-Dawley rats; conditions: Sprague-Dawley, plasma; rat PO 200 mg/kg, male, mean

MOLECULE: CC(C)(OCc1cc(-c2cccc(OC3CCC3)c2)n(-c2ccccc2N2CCC2)n1)C(=O)O [Compound 1]
half-life: 3.14 h

====

test: Rat pharmacokinetics, oral gavage; type: in vivo, Sprague-Dawley rats; conditions: Sprague-Dawley, plasma; rat PO 20 mg/kg, male, mean

SMILES NOTATION: CC(C)(OCc1cc(-c2cccc(OC3CCC3)c2)n(-c2ccccc2N2CCC2)n1)C(=O)O
half-life, h: 3.27

====

test: Rat pharmacokinetics, oral gavage; assay type: in vivo, Sprague-Dawley rats; conditions: Sprague-Dawley, plasma; rat PO 75 mg/kg, male, mean
Counter-ions that a name gives are not always drawn.

COMPOUND: CC(C)(OCc1cc(-c2cccc(OC3CCC3)c2)n(-c2ccccc2N2CCC2)n1)C(=O)O [Compound 1 tris salt]
UNIT LABEL: µg·h/mL
AUC(0-inf): 910

====

assay: Kinetic solubility in biorelevant media; assay type: physicochemical; details: fasted-state simulated gastric fluid (FaSSGF), fassgf or other biorelevant, thermodynamic from solid; FaSSGF pH 1.6, room temperature, t = 1 hour
Where a name gives a salt, the structure may show the parent alone.
READOUT TYPE: solubility at 1 h

COMPOUND: CC(C)(OCc1cc(-c2cccc(OC3CCC3)c2)n(-c2ccccc2N2CCC2)n1)C(=O)O [tris salt Form B]
READOUT VALUE: 0.46 µg/mL

====

experiment: Rat pharmacokinetics, oral gavage; type: in vivo, Sprague-Dawley rats; conditions: Sprague-Dawley, plasma; rat PO 20 mg/kg, male, mean
READOUT TYPE: AUC(0-inf)

COMPOUND: CC(C)(OCc1cc(-c2cccc(OC3CCC3)c2)n(-c2ccccc2N2CCC2)n1)C(=O)O [Compound 1]
READOUT TYPE: AUC(0-inf)
READOUT VALUE: 168 µg·h/mL

====

experiment: Rat pharmacokinetics, oral gavage; assay type: in vivo, Sprague-Dawley rats; conditions: female, Sprague-Dawley, rat, plasma, po, 60 mg/kg, rat PO 60 mg/kg, female, mean; read-out: AUClast
READOUT TYPE: AUC(0-t) (µg·h/mL)

SMILES NOTATION: CC(C)(OCc1cc(-c2cccc(OC3CCC3)c2)n(-c2ccccc2N2CCC2)n1)C(=O)O
UNIT LABEL: µg·h/mL
READOUT VALUE: 1430

====

experiment: Rat pharmacokinetics, oral gavage; assay type: in vivo, Sprague-Dawley rats; settings: male, Sprague-Dawley, rat, plasma, po, 75 mg/kg, rat PO 75 mg/kg, male, mean; read-out: AUClast
Counter-ions that a name gives are not always drawn.

COMPOUND: CC(C)(OCc1cc(-c2cccc(OC3CCC3)c2)n(-c2ccccc2N2CCC2)n1)C(=O)O [Compound 1 tris salt]
UNIT LABEL: µg·h/mL
AUC(0-t): 906

====

Experiment: Rat pharmacokinetics, oral gavage
Assay type: in vivo, Sprague-Dawley rats
Conditions: Sprague-Dawley, plasma; rat PO 250 mg/kg, male, mean
Protocol: Groups, Dosing, and Collection. […] Appropriate serial concentrations of working solutions were achieved by diluting stock solution of analyte with 50% acetonitrile in water solution. […] 2 μL of the supernatant was injected into the LC/MS/MS system for quantitative analysis. […]
Counter-ions that a name gives are not always drawn.

COMPOUND: CC(C)(OCc1cc(-c2cccc(OC3CCC3)c2)n(-c2ccccc2N2CCC2)n1)C(=O)O [Compound 1 tris salt]
AUC(0-inf): 2890 µg·h/mL

====

experiment: Rat pharmacokinetics, oral gavage; type: in vivo, Sprague-Dawley rats; settings: Sprague-Dawley, plasma; rat PO 200 mg/kg, female, mean; read-out: MRTInf—obs

COMPOUND: CC(C)(OCc1cc(-c2cccc(OC3CCC3)c2)n(-c2ccccc2N2CCC2)n1)C(=O)O [Compound 1]
UNIT LABEL: h
MRT inf: 15.9
